# Assay remarks: antimalarial activity against Dd2 strain (AID 2302);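 note: 0% = DMSO untreated growth and 100% = chloroquine plus artemisinin killed control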
# Recorded conditions: P. falciparum Dd2 in RBCs, LDH growth readout, 72 h; at 2 µM; stronger effect = higher value
growth inhibition values by entry
Measure name: growth inhibition (%)

> print(dat)
                                   compound  data.value
1  Cc1ccc(C2(CN3CCC(NC(=O)c4[nH]ncc4Cl)CC3)CCCCC2)cc1          96
2              Cc1cccnc1Nc1nc(-c2ccccn2)cs1          99
3  O=C1COC2(CN1CC1CCN(Cc3ccc(O)c(Cl)c3)C1)c1ccccc1-c1ccccc12 (centres undefined)          50
4      CC1(C)N=C(N)N=C(N)N1OCc1ccc2ccccc2c1          97
5  COc1ccc(CNCc2cccc(-c3csc(-c4nc5ccccc5[nH]4)c3)c2)cc1          22
6  COc1cc(-c2cc(-c3ccc(S(C)(=O)=O)cc3)cnc2N)ccc1O          97
7  COc1ccc(C(=O)N2CCc3cc4nccc(N5CCN6CCC[C@H]6C5)c4cc32)cc1          50
8  CC(C)CCN(Cc1cncn1Cc1cccc(C(F)(F)F)c1)C(=O)c1cncc(-c2ccccc2)c1           4
9  NC1=NC(c2ccccc2)(c2ccccc2)C(=O)N1CCCCc1ccccc1          81

###

# Target under test: L-lactate dehydrogenase (Plasmodium falciparum (isolate CDC / Honduras)) (UniProt Q27743)
# Sequence (Q27743 whole entry, looked up): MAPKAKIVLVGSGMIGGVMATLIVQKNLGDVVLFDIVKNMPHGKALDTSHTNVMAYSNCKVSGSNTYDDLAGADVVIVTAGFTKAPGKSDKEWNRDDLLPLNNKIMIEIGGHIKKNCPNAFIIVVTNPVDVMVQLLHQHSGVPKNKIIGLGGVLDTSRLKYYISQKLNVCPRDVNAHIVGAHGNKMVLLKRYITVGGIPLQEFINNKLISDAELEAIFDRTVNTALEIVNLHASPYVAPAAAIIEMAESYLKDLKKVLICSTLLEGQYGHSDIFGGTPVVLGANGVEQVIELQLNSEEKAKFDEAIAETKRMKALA
# Assay remarks: PfLDH activity inhibition – cell lysate, 3D7 strain, counter-screen for P. falciparum growth inhibition project (AID 2304);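 note: 0% = vehicle and 100% = reference inhibitor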
# Recorded conditions: P. falciparum 3D7 crude extract, LDH APAD/NBT absorbance; at 2 µM; stronger effect = higher value
Measure name: inhibition (%)

> print(dat)
                                   compound  measure.name  data.value
1  CC(=O)Nc1ccc(CCNC(C)Cc2ccc(C(=O)Nc3ccc(CC(C)NCCc4cccc(Cl)c4)cc3)cc2)cc1 (stereo not drawn)    inhibition          -7
2  CCNC(=O)NC1CCN(Cc2c(-c3cccs3)nc3ccccc3c2C(=O)N[C@@H](C)C2CCCCC2)CC1    inhibition          -2
3  CN1CCCN(Cc2ccc(-c3ccc(NC(=O)c4cccc(Cl)c4)cc3)cc2)CC1    inhibition           2
4  Cc1nnc(-c2ccc3ccccc3c2)c2cn(-c3cccc([N+](=O)[O-])c3)nc12    inhibition           3
5  O=C(Nc1cccc(-c2cccc(CN3CCCC3)c2)c1)c1cccc(Cl)c1    inhibition          -2
6  CCN(CC)C(=O)C1CCCN(C(=O)Nc2cc(C(F)(F)F)cc(C(F)(F)F)c2)C1 (stereo not drawn)    inhibition          -2
7            CC1(C)N=C(N)N=C(N)N1OCC1CCCCC1    inhibition           4
8  CCCc1cc(OCCCOc2ccccc2)ccc1OCCCON1C(N)=NC(N)=NC1(C)C    inhibition           6

###

# Target under test: L-lactate dehydrogenase (Plasmodium falciparum (isolate CDC / Honduras)) (UniProt Q27743)
# Assay remarks: PfLDH activity inhibition – cell lysate, 3D7 strain, counter-screen for P. falciparum growth inhibition project (AID 2304);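 note: 0% = vehicle and 100% = reference inhibitor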
# Recorded conditions: P. falciparum 3D7 crude extract, LDH APAD/NBT absorbance; at 2 µM; stronger effect = higher value
The source made the active and inactive calls. No rule for the calls is given here.
Measure name: inhibition

> print(dat)
                           structure.smiles  measure.name      data.value
1  CN1C[C@@H](c2ccccc2)c2cc(O)c(CN3CCCCC3)cc2C[C@H]1Cc1ccccc1    inhibition  -8% (inactive)
2  CC(C)C[C@H]1C(=O)N[C@H](C2Cc3ccccc3C2)C(=O)N1[C@@H](C(=O)Nc1ccccc1OCc1ccccc1)c1ccc(F)cc1F    inhibition   5% (inactive)
3  C[C@@H](Nc1nc(NCc2ccccc2)c2sccc2n1)c1ccccc1    inhibition  -4% (inactive)

###

# Assay remarks: human hepatoma cell viability loss – ATP luminescence, cytotoxicity control for P. falciparum antimalarial project, primary screen (AID 2303);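 note: 0% = DMSO wells and 100% = digitonin-killed cells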
# Recorded conditions: HepG2 viability, 24-48 h, at 10 µM
The source made the active and inactive calls.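 The calls were made as follows: active = inhibition above 50%; inactive = the rest.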
Outcomes: T (active), F (inactive)

> print(dat)
                                    compound  label
 1  CC1(C)CCCN(c2ncc(-c3cccc(CNCc4ccccc4O)c3)cn2)C1      F
 2  Cc1[nH]c(C)c(-c2ccc(-c3ccc(OC(F)(F)F)cc3)cc2)c(=O)c1Cl      F
 3  O=C(Nc1ccc(OC2CCN(Cc3ccc(F)cc3)CC2)c(Cl)c1)c1cccs1      F
 4  Cc1cnn(-c2cccc(C(=O)NC3CCC(CCN4CCc5ccc(C#N)cc5CC4)CC3)c2)c1 (centres undefined)      F
 5  O=C(Nc1cc(Cl)cc(Cl)c1)N[C@H]1CCN(CCCCCNC(=O)[C@@H]2C[C@H]2c2ccc(Cl)c(Cl)c2)C1      F
 6  Cc1oc(-c2cccc(Oc3ccccc3)c2)nc1CN(Cc1cnn(C)c1)C(C)C      F
 7  O=C(Nc1nccs1)c1cn(-c2ccccc2)nc1-c1ccc(Cl)s1      F
 8  Cn1cncc1C(=O)Nc1cccc(-c2ccc(-c3nc4ccccc4[nH]3)cc2)c1      F
 9  CCN(CC)CCOc1ccc(N(Cc2ccc(C(C)(C)C)cc2)C(=O)c2ccc(Cc3ccccc3)cc2)cc1OC      F
10  O=C(NCCCCCN1CCC(c2c[nH]c3ccccc23)C1)Nc1ccc(Cl)c(Cl)c1 (centres undefined)      F
11  O=C(NCc1ccc(Cl)c(Cl)c1)c1ccc(-c2nc3ccc(Cl)cc3[nH]2)cc1      F
12  CCCc1cn2c3c(cc(C(=O)N[C@@H](Cc4ccccc4)[C@H](O)CNC4CCOCC4)cc13)N(C)S(=O)(=O)CC2      F
13  c1ccc(-c2ccc(CNCCCNc3nc4ccccc4[nH]3)cc2)cc1      F
14                 Cc1nc(N)nc(N)c1C#CC1CCCC1      T

###

# Target under test: Calcium-dependent protein kinase 1 (Plasmodium falciparum (isolate 3D7)) (UniProt P62344)
# Sequence (P62344 whole entry, looked up): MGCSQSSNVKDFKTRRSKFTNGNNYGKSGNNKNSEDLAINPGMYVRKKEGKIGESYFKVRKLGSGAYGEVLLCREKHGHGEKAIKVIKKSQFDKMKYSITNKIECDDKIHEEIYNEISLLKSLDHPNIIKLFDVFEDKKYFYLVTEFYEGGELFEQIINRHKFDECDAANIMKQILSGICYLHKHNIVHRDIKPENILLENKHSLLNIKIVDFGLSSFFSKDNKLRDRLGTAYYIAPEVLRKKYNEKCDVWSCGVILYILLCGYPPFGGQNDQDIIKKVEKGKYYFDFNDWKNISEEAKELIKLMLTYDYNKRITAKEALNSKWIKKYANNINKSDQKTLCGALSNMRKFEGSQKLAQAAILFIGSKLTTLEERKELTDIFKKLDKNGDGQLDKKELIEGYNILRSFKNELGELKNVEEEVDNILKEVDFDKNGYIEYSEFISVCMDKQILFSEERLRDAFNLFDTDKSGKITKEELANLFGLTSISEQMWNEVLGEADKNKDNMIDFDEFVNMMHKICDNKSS
# Assay remarks: PfCDPK1 kinase inhibitors, biochemical, TCAMS library (AID 1159585);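 note: inhibitors leave more ATP so luminescence rises with inhibition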
# Recorded conditions: recombinant PfCDPK1, Kinase-Glo ATP depletion luminescence
Results with a measured potency or affinity are listed apart. Activity calls are given as the source filed them. Cut-off not given; nearly all actives show IC50 up to about 0.98 µM.
Measure name: outcome

> print(dat)
                                    molecule  measure.name  data.value
 1  Cc1ccc(N2CCN(C(=O)c3cccc(-c4cncc5nc(-c6ccco6)n(C)c45)c3)CC2)nc1       outcome    inactive
 2       CSc1nc2nc(C)c(Cc3cccc(F)c3)c(C)n2n1       outcome    inactive
 3            NCc1ccc(-c2ccc3c(N)nccc3c2)cc1       outcome    inactive
 4                 Nc1nc2cccc3ccc4cccc1c4c32       outcome    inactive
 5  Cc1cc(-c2ccc3c(c2)CCN(CCC2CCC(NC(=O)/C=C/c4cccc(F)c4)CC2)CC3)on1 (stereo not given)       outcome    inactive
 6  Nc1cccc(CNCc2ccc(-c3cccc(-c4nc5ccc(C(F)(F)F)cc5[nH]4)c3)cc2)c1       outcome    inactive
 7  O=C(Nc1ccc(Oc2ccccc2)cc1)N(Cc1ccc(-c2cccc(CN3CCNCC3)c2)cc1)C1CCN(Cc2ccccc2)CC1       outcome    inactive
 8  Cc1cc(NN=Cc2ccccc2[N+](=O)[O-])c2ccc(F)cc2n1       outcome    inactive
 9  C=CCOC(=O)N1CCC(CNCc2ccc(-c3cccc(-c4nc5c(C)cccc5[nH]4)c3)cc2)C1 (stereo not given)       outcome    inactive
10  CN(C)CCOc1ccc2c(c1)OC(C)(C)C=C2c1cccc2ccccc12       outcome    inactive
11  COc1ccc2ccccc2c1CCCCN1CCN(CC(c2ccc(F)cc2)N2CCC2)CC1 (stereo not given)       outcome    inactive
12  Cc1cc(CN2CC[C@H](NC(=O)c3ccc(Cl)c(Cl)c3)C2)ccc1OCCN1CCCC1       outcome    inactive
13  COc1cc2nc(N3CCC(c4ccccc4)CC3)nc(NCc3ccc(=O)[nH]c3)c2cc1OC       outcome    inactive
14  CCc1c(CCNCCCCCNCCc2ccc(OC)c(OC)c2CC)ccc(OC)c1OC       outcome    inactive
15                Oc1ccc2ccccc2c1CNCC1CCCCC1       outcome    inactive

###

# Target under test: Calcium-dependent protein kinase 4 (Plasmodium falciparum (isolate 3D7)) (UniProt Q8IBS5)
# Sequence (Q8IBS5 whole entry, looked up): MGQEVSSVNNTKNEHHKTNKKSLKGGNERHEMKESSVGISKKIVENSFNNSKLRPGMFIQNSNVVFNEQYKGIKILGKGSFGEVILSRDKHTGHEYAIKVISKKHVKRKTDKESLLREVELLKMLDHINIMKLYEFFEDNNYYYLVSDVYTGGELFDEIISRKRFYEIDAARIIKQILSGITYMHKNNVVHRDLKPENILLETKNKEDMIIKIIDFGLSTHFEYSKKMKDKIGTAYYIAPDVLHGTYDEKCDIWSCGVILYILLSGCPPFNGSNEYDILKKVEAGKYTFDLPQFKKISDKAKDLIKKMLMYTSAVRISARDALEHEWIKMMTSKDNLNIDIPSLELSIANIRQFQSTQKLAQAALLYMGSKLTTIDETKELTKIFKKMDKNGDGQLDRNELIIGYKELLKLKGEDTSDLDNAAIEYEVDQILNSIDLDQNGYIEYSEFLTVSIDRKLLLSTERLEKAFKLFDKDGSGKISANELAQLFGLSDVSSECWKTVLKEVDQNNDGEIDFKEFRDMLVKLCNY
# Assay remarks: PfCDPK4 kinase inhibitors, biochemical, TCAMS library (AID 1159588)
# Recorded conditions: recombinant PfCDPK4, Kinase-Glo ATP depletion luminescence
Potency and affinity values are given separately. Active and inactive are the calls of the source. Cut-off not given; nearly all actives show IC50 up to about 0.91 µM.
Measure name: outcome

> print(dat)
                           structure.smiles  data.value
1  CN(C)CCN(C)Cc1ccc(-c2ccc(NC(=O)c3cccc(Cl)c3)cc2)cc1    inactive
2  COc1ccc(NC(=O)Nc2ccc(-c3ccc(-c4nc5ccccc5[nH]4)cc3)cc2)cc1    inactive
3  O=C(NCc1ccc(Cl)c(Cl)c1)c1ccc(-c2nc3ccc(F)cc3[nH]2)cc1    inactive
